Cited source: patent US8329735B2

- targetOrTestSystem: human CB1R (Homo sapiens, UniProt P21554)
- Construct: host or cells: CHO cells
- Sequence (P21554 whole entry): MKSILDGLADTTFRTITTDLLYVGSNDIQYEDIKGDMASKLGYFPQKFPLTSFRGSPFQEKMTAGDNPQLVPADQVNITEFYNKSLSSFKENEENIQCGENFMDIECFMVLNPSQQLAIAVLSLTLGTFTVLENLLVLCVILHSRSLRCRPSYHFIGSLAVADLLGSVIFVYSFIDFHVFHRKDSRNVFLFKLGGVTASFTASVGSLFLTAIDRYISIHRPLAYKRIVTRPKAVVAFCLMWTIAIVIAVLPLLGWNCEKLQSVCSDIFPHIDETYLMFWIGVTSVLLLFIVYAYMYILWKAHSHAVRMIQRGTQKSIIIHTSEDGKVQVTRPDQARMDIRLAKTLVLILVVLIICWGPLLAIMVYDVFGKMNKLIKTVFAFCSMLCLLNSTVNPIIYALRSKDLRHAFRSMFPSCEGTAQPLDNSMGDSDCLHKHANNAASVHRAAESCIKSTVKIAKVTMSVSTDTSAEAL
- protocolSummary: CB1R mediated modulation of cAMP synthesis
- Format: cell-based
- assaySetup: CB1 CAMP EC50, Table XI; CHO cells expressing human CB1R, forskolin-stimulated cAMP
endpointName: pEC50
pEC50 here is simply -log10 of the concentration when that concentration is written in mol/L.

Consider the following illustrative entries.
compound	pEC50
CC(C)(C)c1csc(NC(=O)C(C)(C)S(=O)(=O)c2ccc(F)cc2)n1 [Example 252 WO08014199]	6.03
CC(C)(C)c1cc(NC(=O)C(C)(C)S(=O)(=O)c2ccc(F)cc2)on1 [Example 248 WO08014199]	5.48

Tell us which pEC50 value is on record for CC(C)(C)c1cc(NC(=O)C(C)(C)S(=O)(=O)c2ccc(F)cc2)no1 [Example 130 WO08014199] 5.65

Tell us which pEC50 value is on record for Cn1nc(C(C)(C)C)cc1NC(=O)C(C)(C)S(=O)(=O)c1ccc(F)cc1 [Example 251 WO08014199] 4.96

Tell us which pEC50 value is on record for CC(C)(C)c1csc(NC(=O)C(C)(C)S(=O)(=O)C2CCOCC2)n1 [Example 67 WO08039645] 4.94

Tell us which pEC50 value is on record for CCC(C)S(=O)(=O)C(C)(C)C(=O)Nc1nc(C(C)(C)C)cs1 (stereo not shown) [Example 44 WO08039645] 4.97

Tell us which pEC50 value is on record for CC(C)(C)c1csc(NC(=O)C(C)(C)S(=O)(=O)CC2CCOCC2)n1 [Example 57 WO08039645] 5.62

Tell us which pEC50 value is on record for CC(C)(C)n1nnc(NC(=O)C(C)(C)S(=O)(=O)c2ccc(F)cc2)n1 [Table II compound 6] 4.40

---

- targetOrTestSystem: human CB1R (Homo sapiens)
- Construct: host or cells: CHO cells
- protocolSummary: CB1R mediated modulation of cAMP synthesis
- Format: cell-based
- assaySetup: CB1 EC50, Table II; CHO cells expressing human CB1R, forskolin-stimulated cAMP
endpointName: EC50

compound	targetOrTestSystem	result
CC(C)(C)n1nnc(NC(=O)C(C)(C)S(=O)(=O)c2ccc(F)cc2)n1 [Table II compound 6]	human CB1R (Homo sapiens)	39.5 µM
CO[C@H]1CC[C@@H](S(=O)(=O)C(C)(C)C(=O)Nc2nnn(C(C)(C)C)n2)CC1	human CB1R (Homo sapiens)	> 50 µM

Tell us which EC50 value is on record for CC(C)(C)n1nnc(NC(=O)C(C)(C)S(=O)(=O)CC[C@@H]2CCOC2)n1 ~50 µM

Tell us which EC50 value is on record for CC(C)(C)n1nnc(NC(=O)C(C)(C)S(=O)(=O)CC2CCOCC2)n1 [Table II compound 2] > 50 µM

Tell us which EC50 value is on record for CC(C)(C)n1nnc(NC(=O)C(C)(C)S(=O)(=O)[C@H]2CC[C@@H](O)CC2)n1 > 50 µM

Tell us which EC50 value is on record for CC(C)(C)n1nnc(NC(=O)C(C)(C)S(=O)(=O)C2CCOCC2)n1 [Table II compound 1] > 20 µM

---

- targetOrTestSystem: human CB2R (Homo sapiens, UniProt P34972)
- Construct: host or cells: CHO cells
- Sequence (P34972 whole entry): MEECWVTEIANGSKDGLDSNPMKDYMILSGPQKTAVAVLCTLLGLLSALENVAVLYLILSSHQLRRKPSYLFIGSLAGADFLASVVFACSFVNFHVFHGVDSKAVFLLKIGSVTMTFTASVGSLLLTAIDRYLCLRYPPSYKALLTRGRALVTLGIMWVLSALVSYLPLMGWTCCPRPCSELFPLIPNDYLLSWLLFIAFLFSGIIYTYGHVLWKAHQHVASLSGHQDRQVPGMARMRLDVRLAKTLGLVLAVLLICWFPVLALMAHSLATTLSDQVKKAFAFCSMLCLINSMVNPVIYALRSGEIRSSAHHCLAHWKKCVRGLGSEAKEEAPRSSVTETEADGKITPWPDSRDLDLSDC
- protocolSummary: CB2R mediated modulation of cAMP synthesis
- Type: cell-based
- assaySetup: Table II; CHO cells expressing human CB2R, forskolin-stimulated cAMP; read-out: CB2 EC50
endpointName: pEC50
pEC50 here is simply -log10 of the concentration when that concentration is written in mol/L.

Consider the compound CC[C@H](C)S(=O)(=O)C(C)(C)C(=O)Nc1nnn(C(C)(C)C)n1 tested on human CB2R (Homo sapiens, UniProt P34972); state its pEC50. 7.00

---

- targetOrTestSystem: human CB2R (Homo sapiens, UniProt P34972)
- Construct: host or cells: CHO cells
- protocolSummary: CB2R mediated modulation of cAMP synthesis
- Format: cell-based
Examples of molecules with documented pEC50 follow.
pEC50 here is simply -log10 of the concentration when that concentration is written in mol/L.

Consider the following illustrative entries.
molecule	numericValue
CC(C)(C)n1nnc(NC(=O)C(C)(C)S(=O)(=O)c2ccc(F)cc2)n1 [Table II compound 6]	7.66
CCC(C)S(=O)(=O)C(C)(C)C(=O)Nc1nc(C(C)(C)C)cs1 (stereo not drawn) [Example 44 WO08039645]	7.85
CC(C)(C)c1csc(NC(=O)C(C)(C)S(=O)(=O)c2ccc(F)cc2)n1 [Example 252 WO08014199]	9.40
CC(C)(C)c1cc(NC(=O)C(C)(C)S(=O)(=O)C2CCOCC2)no1 [Example 66 WO08039645]	9.14
CC(C)(C)n1nnc(NC(=O)C(C)(C)S(=O)(=O)CC2CCOCC2)n1 [Table II compound 2]	7.30
CO[C@H]1CC[C@@H](S(=O)(=O)C(C)(C)C(=O)Nc2nnn(C(C)(C)C)n2)CC1	7.25
CC(C)(C)c1cc(NC(=O)C(C)(C)S(=O)(=O)c2ccc(F)cc2)no1 [Example 130 WO08014199]	8.62
CC(C)(C)c1csc(NC(=O)C(C)(C)S(=O)(=O)C2CCOCC2)n1 [Example 67 WO08039645]	7.92

Consider the molecule CC(C)(C)n1nnc(NC(=O)C(C)(C)S(=O)(=O)[C@H]2CC[C@@H](O)CC2)n1 tested on human CB2R (Homo sapiens, UniProt P34972); state its pEC50. 8.06

Consider the molecule CC(C)(C)c1csc(NC(=O)C(C)(C)S(=O)(=O)CC2CCOCC2)n1 [Example 57 WO08039645] tested on human CB2R (Homo sapiens, UniProt P34972); state its pEC50. 7.64

Consider the molecule CC(C)(C)c1cc(NC(=O)C(C)(C)S(=O)(=O)c2ccc(F)cc2)on1 [Example 248 WO08014199] tested on human CB2R (Homo sapiens, UniProt P34972); state its pEC50. 9.01

Consider the molecule CCC(C)S(=O)(=O)C(C)(C)C(=O)Nc1cc(C(C)(C)C)on1 (stereo not drawn) [Example 42 WO08039645] tested on human CB2R (Homo sapiens, UniProt P34972); state its pEC50. 7.72

---

- Test system: Salmonella bacterial strains TA98 and TA100
- protocolSummary: Ames mutagenicity assay: bacteria reverse mutation screening assay
- Format: cell-based
- assaySetup: TA98 and TA100, presence or absence of S9
endpointName: Ames

Consider the following illustrative entries.
compound	targetOrTestSystem	result
CC[C@H](C)S(=O)(=O)C(C)(C)C(=O)Nc1nnn(C(C)(C)C)n1	Salmonella bacterial strains TA98 and TA100	negative
Cn1nc(C(C)(C)C)cc1NC(=O)C(C)(C)S(=O)(=O)c1ccc(F)cc1	Salmonella bacterial strains TA98 and TA100	positive
CC(C)(C)n1nnc(NC(=O)C(C)(C)S(=O)(=O)CC2CCOCC2)n1	Salmonella bacterial strains TA98 and TA100	negative
Cn1nc(C(C)(C)C)cc1NC(=O)C(C)(C)S(=O)(=O)C1CCOCC1	Salmonella bacterial strains TA98 and TA100	positive
Cn1nc(C(C)(C)C)cc1NC(=O)C(C)(C)S(=O)(=O)CC1CCOCC1	Salmonella bacterial strains TA98 and TA100	positive

Consider the compound CC(C)(C)c1csc(NC(=O)C(C)(C)S(=O)(=O)C2CCOCC2)n1 tested on Salmonella bacterial strains TA98 and TA100; state its Ames. negative

Consider the compound CC(C)(C)c1cc(NC(=O)C(C)(C)S(=O)(=O)CC2CCOCC2)no1 tested on Salmonella bacterial strains TA98 and TA100; state its Ames. negative

Consider the compound CCC(C)S(=O)(=O)C(C)(C)C(=O)Nc1cc(C(C)(C)C)nn1C (stereo not shown) tested on Salmonella bacterial strains TA98 and TA100; state its Ames. positive

Consider the compound CC(C)(C)n1nnc(NC(=O)C(C)(C)S(=O)(=O)c2ccc(F)cc2)n1 tested on Salmonella bacterial strains TA98 and TA100; state its Ames. negative

Consider the compound CC(C)(C)c1csc(NC(=O)C(C)(C)S(=O)(=O)CC2CCOCC2)n1 tested on Salmonella bacterial strains TA98 and TA100; state its Ames. negative

Consider the compound CC(C)(C)n1nnc(NC(=O)C(C)(C)S(=O)(=O)C2CCOCC2)n1 tested on Salmonella bacterial strains TA98 and TA100; state its Ames. negative

Consider the compound CC(C)(C)c1cc(NC(=O)C(C)(C)S(=O)(=O)c2ccc(F)cc2)no1 tested on Salmonella bacterial strains TA98 and TA100; state its Ames. negative

Consider the compound CCC(C)S(=O)(=O)C(C)(C)C(=O)Nc1nc(C(C)(C)C)cs1 (stereo not shown) tested on Salmonella bacterial strains TA98 and TA100; state its Ames. negative
